The entries that follow carry pKi values tested on Melanocortin receptor 5 (Homo sapiens), drawn from several published reports.
Sequence (P33032 whole entry): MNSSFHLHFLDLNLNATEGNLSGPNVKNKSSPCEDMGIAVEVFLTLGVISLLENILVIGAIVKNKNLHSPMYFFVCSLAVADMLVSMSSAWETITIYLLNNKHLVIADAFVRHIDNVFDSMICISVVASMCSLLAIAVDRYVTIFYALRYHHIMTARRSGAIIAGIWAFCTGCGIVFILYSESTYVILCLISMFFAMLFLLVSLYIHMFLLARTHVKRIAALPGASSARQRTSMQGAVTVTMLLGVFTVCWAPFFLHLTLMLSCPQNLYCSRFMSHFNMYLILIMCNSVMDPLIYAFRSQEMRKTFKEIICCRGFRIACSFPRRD
The scale used: pKi is minus the common logarithm of the concentration in molar units.

Use the examples below as a reference point.
[
  {
    "compound": "CCCC[C@H](NC(=O)[C@@H](NC(=O)[C@@H](N)Cc1ccc(O)cc1)C(C)C)C(=O)NCC(=O)N[C@@H](Cc1c[nH]cn1)C(=O)N[C@@H](Cc1ccccc1)C(=O)N[C@@H](CCCN=C(N)N)C(=O)N[C@H](Cc1ccc2ccccc2c1)C(=O)N[C@@H](CC(=O)O)C(=O)N[C@@H](CCCN=C(N)N)C(=O)N[C@@H](Cc1ccccc1)C(=O)NCC(N)=O",
    "systemName": "Melanocortin receptor 5 (Homo sapiens)",
    "testValue": 7.77
  },
  {
    "compound": "CC(C)(N)C/N=C(\\Nc1ccc(C(=O)NCCc2ccc(Cl)cc2Cl)cc1)NC1CCCCC1",
    "systemName": "Melanocortin receptor 5 (Homo sapiens)",
    "testValue": 8.28
  },
  {
    "compound": "CCCC[C@H](NC(=O)[C@@H](NC(=O)[C@@H](N)Cc1ccc(O)cc1)C(C)C)C(=O)N[C@H]1CSSC[C@H](C(=O)N[C@@H](CCCN=C(N)N)C(=O)N[C@@H](Cc2ccccc2)C(=O)NCC(N)=O)NC(=O)[C@H](Cc2c[nH]c3ccccc23)NC(=O)[C@H](CCCN=C(N)N)NC(=O)[C@H](Cc2ccccc2)NC(=O)[C@H](Cc2c[nH]cn2)NC1=O",
    "systemName": "Melanocortin receptor 5 (Homo sapiens)",
    "testValue": 6.66
  },
  {
    "compound": "CCCC[C@H](NC(=O)[C@@H](NC(=O)[C@@H](N)Cc1ccc(O)cc1)C(C)C)C(=O)NCC(=O)N[C@@H](Cc1c[nH]cn1)C(=O)N[C@H](Cc1ccc2ccccc2c1)C(=O)N[C@@H](CCCN=C(N)N)C(=O)N[C@@H](Cc1c[nH]c2ccccc12)C(=O)N[C@@H](CC(=O)O)C(=O)N[C@@H](CCCN=C(N)N)C(=O)N[C@@H](Cc1ccccc1)C(=O)NCC(N)=O",
    "systemName": "Melanocortin receptor 5 (Homo sapiens)",
    "testValue": 9.00
  },
  {
    "compound": "COc1cc([C@@H](C)C(=O)N2CC[C@@]3(COc4cc(-c5ncccn5)c(C)nc4N3)C2)c(F)cn1",
    "systemName": "Melanocortin receptor 5 (Homo sapiens)",
    "testValue": 6.08
  }
]

Need pKi of `NCCC(=O)N[C@H](Cc1ccc(Cl)cc1Cl)C(=O)N1CCN(C2(CNCc3ccccc3F)CCCCC2)CC1` , thanks.
5.85

Now consider `CCCC[C@H](NC(=O)[C@@H](NC(=O)[C@@H](N)Cc1ccc(O)cc1)C(C)C)C(=O)N[C@H]1CSSC[C@@H](C(=O)N[C@@H](CCCNC(=N)N)C(=O)N[C@@H](Cc2ccccc2)C(=O)NCC(N)=O)NC(=O)[C@H](Cc2c[nH]c3ccccc23)NC(=O)[C@H](CCCNC(=N)N)NC(=O)[C@H](Cc2ccccc2)NC(=O)[C@H](Cc2cnc[nH]2)NC1=O` and answer again.
7.57

// same read-out, input: `O=C(NCCc1ccc(Cl)cc1Cl)c1ccc(NC(=NC2CCCCC2)NCc2cc(F)cc(F)c2)cc1`
7.15

Param item: Cc1ccc(N2CCN(C(=O)[C@@H]3CN(C4CCOCC4)C[C@H]3c3ccc(Cl)cc3)CC2)c([C@@H](NC(=O)CCN(C)C)C(C)C)c1 (stereo in doubt; 13b-1)
6.10

Quick one: `CSCC[C@H](NC(=O)[C@H](CCCNC(=N)N)NC(=O)[C@H](Cc1ccc(O)cc1)NC(C)=O)C(=O)N[C@@H](CCC(=O)O)C(=O)N[C@@H](Cc1cnc[nH]1)C(=O)N[C@H](Cc1ccccc1)C(=O)N[C@@H](CCCNC(=N)N)C(=O)N[C@@H](Cc1c[nH]c2ccccc12)C(=O)NCC(=O)N[C@@H](CO)C(=O)N1CCC[C@H]1C(=O)N1CCC[C@H]1C(=O)N[C@@H](CCCCN)C(=O)N[C@@H](CC(=O)O)C(N)=O`
9.59

And what about the compound `CCCC[C@H](NC(=O)[C@@H](NC(=O)[C@@H](N)Cc1ccc(O)cc1)C(C)C)C(=O)NCC(=O)N[C@@](C)(Cc1ccccc1)C(=O)N[C@@H](Cc1ccccc1)C(=O)N[C@@H](CCCN=C(N)N)C(=O)N[C@H](Cc1ccc2ccccc2c1)C(=O)N[C@@H](CC(=O)O)C(=O)N[C@@H](CCCN=C(N)N)C(=O)N[C@@H](Cc1ccccc1)C(=O)NCC(N)=O` ?
5.48
